- tested on: T1, UbcH5B S22R C85K–Ub (UniProt P62837 1-147; P0CG47 1-76, S22R | C85K, conjugated to Ub via an isopeptide bond (non-hydrolyzable amide linkage) | conjugated to UbcH5B via an isopeptide bond)
- T1 construct: E2 ubiquitin-conjugating enzyme UbcH5B; ubiquitin (Ub); also called UbcH5B–Ub; E2–Ub; source: expressed, generated and purified as described previously [7]
- assay info: SPR; GST-Cbl variants coupled to CM-5 chips; UbcH5B–Ub as analyte at 0–120 μM; Biacore T200
- settings: both partners purified
measurement type: Kd (µM)
Entry rule: numbers only, all in µM.

For this binder ( His-GST-N-Cbl Y371D (residues 47-435) (domain or fragment, UniProt P22681 47-435, looked up, Cbl (c-Cbl), N-terminal fragment with TKBD, linker helix region and RING domain (N-Cbl), residues 47-435; mutation identified in MDS/MPN clinical samples; Tag not cleaved for SPR; not shown: His, N-terminal, kept; GST, N-terminal, kept) PPGTVDKKMVEKCWKLMDKVVRLCQNPKLALKNSPPYILDLLPDTYQHLRTILSRYEGKMETLGENEYFRVFMENLMKKTKQTISLFKEGKERMYEENSQPRRNLTKLSLIFSHMLAELKGIFPSGLFQGDTFRITKADAAEFWRKAFGEKTIVPWKSFRQALHEVHPISSGLEAMALKSTIDLTCNDYISVFEFDIFTRLFQPWSSLLRNWNSLAVTHPGYMAFLTYDEVKARLQKFIHKPGSYIFRLSCTRLGQWAIGYVTADGNILQTIPHNKPLFQALIDGFREGFYLFPDGRNQNPDLTGLCEPTPQDHIKVTQEQYELDCEMGSTFQLCKICAENDKDVKIEPCGHLMCTSCLTSWQESEGQGCPFCRCEIKGTEPIVVDPFD ), measured Kd is 10
